- Tested on: HEK-293T
- assayProcedure: Multiplex assay against HEK293T
- Type: toxicity, cell-based
- details: human, 24 h, 10 µM, compound concentration 10 uM, replicate 1
measurementKind: Population Mitochondria Different-Phenotype (%)

These recorded examples may help you get a feel for the data.
>>> print(df.to_string())
                                   compound  assayvalue
0  CC(C)NC(=O)N1CC[C@H](NC2=Nc3cc(F)ccc3N(CC(F)F)c3ccc(Cl)cc32)C1         94%
1  O=c1[nH]c2ccccc2n1C1CCN(Cc2ccc(-c3[nH]c4cc5ncnc5cc4nc3-c3ccccc3)cc2)CC1         70%
2  Cc1nc(N2CC[C@H](O)C2)ncc1-c1cc(C(F)(F)F)cc2[nH]ncc12          1%
3  CC(C)OC(=O)N1CCC(Oc2ncnc3c2cnn3-c2ccc(S(C)(=O)=O)cc2F)CC1         75%
4  CCc1ccc(OCc2ccccc2C(=O)Nc2ccc3nc(C)cc(N)c3c2)cc1.Cl        100%
5  CC(C)CC(=O)Nc1[nH]nc2c1CN(C(=O)C1CCN(C)CC1)C2(C)C [PHA-793887]          7%
6  CCCSc1nc(N[C@@H]2C[C@H]2c2ccc(F)c(F)c2)c2nnn([C@@H]3C[C@H](OCCO)[C@@H](O)[C@H]3O)c2n1 [TICAGRELOR]         77%
7  COc1ccccc1CN[C@H]1C2CCN(CC2)[C@H]1C(c1ccccc1)c1ccccc1 [CP-96345]        100%

Report Population Mitochondria Different-Phenotype (%) from HEK-293T testing of C=CC(=O)Nc1ccc2[nH]c(=O)n(C3CCN(Cc4ccc(-c5nc6cc[nH]c(=O)c6cc5-c5ccccc5)cc4)CC3)c2c1 [Borussertib]
33%

Report Population Mitochondria Different-Phenotype (%) from HEK-293T testing of C=CC(=O)Nc1cccc(Sc2nc(Nc3ccc(N4CCN(C)CC4)cc3)ncc2Cl)c1
12%

Report Population Mitochondria Different-Phenotype (%) from HEK-293T testing of CN1CCN(Cc2ccc(Nc3ncc(Cl)c(Nc4ccccc4S(=O)(=O)N(C)C)n3)cc2)CC1 [DUBERMATINIB]
88%
